Biological target: Luciferin 4-monooxygenase (Photinus pyralis)
Assay: FLuc inhibitory activity for the follow-up compounds in a biochemical assay with an in-house formulation of detection reagent
Details: purified FLuc, luminescence; series mostly up to 25.6 µM
Results filed as inconclusive are left out. Calls of active or inactive are those of the source. Calls come from the whole dose curve; as a rule, active = well fitted inhibition curve with a large enough effect; inconclusive = small, poorly fitted or top-dose-only effect; inactive = no such curve, though single readings can be large or run the other way.
ENDPOINT NAME: Potency

> print(dat)
                      smiles.representation  endpoint.name   recorded.result
1         CCOc1ccc(C(=O)Nc2ccccc2C(=O)O)cc1        Potency  6.94 µM (active)
2            COc1ccc2nc(NC(=O)c3ccco3)sc2c1        Potency  6.94 µM (active)
3  O=C(O)c1cccc(NC(=O)c2ccc(Cl)c(S(=O)(=O)N3CCCCCC3)c2)c1        Potency          inactive
4   Cc1c(NC(=O)C(C)(C)C)cccc1-c1nc2ccccc2s1        Potency          inactive
5       COc1ccc(C(=O)Nc2nc3ccc(OC)cc3s2)cc1        Potency          inactive

Below: the item to evaluate.
Per the records, this molecule ( COc1cc(OC)cc(C(=O)Nc2ccccc2-c2nc3ccccc3s2)c1 ) has Potency equal to inactive

###

Molecular target: Luciferin 4-monooxygenase (Photinus pyralis)
Test: FLuc inhibitory activity for the follow-up compounds in a biochemical assay with an in-house formulation of detection reagent
Conditions: purified FLuc, luminescence; series mostly up to 25.6 µM
Results filed as inconclusive are left out. Active and inactive are the calls of the source. Calls come from the whole dose curve; as a rule, active = well fitted inhibition curve with a large enough effect; inconclusive = small, poorly fitted or top-dose-only effect; inactive = no such curve, though single readings can be large or run the other way.
Choose one outcome from this list and give only that: y = active, n = inactive

> print(dat)
               smiles.representation  group
1  Cc1ccc(C(=O)Nc2cccc(C(=O)O)c2)cc1      y

Exam item: I would be grateful if you could indicate the recorded call for O=C(Nc1ccccc1-c1nc2ccccc2s1)c1cccnc1 .
Marked response: n

Exam item: I would be grateful if you could indicate the recorded call for Cc1ccc(C(=O)Nc2cccc(C(=O)O)c2)cc1S(=O)(=O)N1CCOCC1 .
Marked response: n

Exam item: I would be grateful if you could indicate the recorded call for Cc1cccc(C(=O)Nc2ccc(-c3nc4ccccc4s3)cc2Cl)c1 .
Marked response: n

###

Biological target: Luciferin 4-monooxygenase (Photinus pyralis) (UniProt P08659)
Sequence (P08659 whole entry, looked up): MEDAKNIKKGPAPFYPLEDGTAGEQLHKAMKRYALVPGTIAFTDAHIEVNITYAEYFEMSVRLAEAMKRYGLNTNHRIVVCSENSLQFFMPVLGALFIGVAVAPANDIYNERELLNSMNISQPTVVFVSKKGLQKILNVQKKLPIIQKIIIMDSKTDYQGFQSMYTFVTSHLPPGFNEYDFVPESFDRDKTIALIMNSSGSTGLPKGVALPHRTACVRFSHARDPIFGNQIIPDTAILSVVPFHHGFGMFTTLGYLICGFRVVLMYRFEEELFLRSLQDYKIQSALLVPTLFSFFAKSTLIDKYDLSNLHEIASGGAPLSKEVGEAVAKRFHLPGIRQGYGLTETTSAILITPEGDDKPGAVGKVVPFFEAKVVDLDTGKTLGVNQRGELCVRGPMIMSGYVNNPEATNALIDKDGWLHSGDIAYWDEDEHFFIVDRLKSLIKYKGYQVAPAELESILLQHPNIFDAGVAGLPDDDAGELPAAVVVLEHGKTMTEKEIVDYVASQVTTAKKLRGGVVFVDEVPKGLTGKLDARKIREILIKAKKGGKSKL
Assay: FLuc inhibitory activity for the follow-up compounds in a biochemical assay with an in-house formulation of detection reagent
Settings: purified FLuc, luminescence; series mostly up to 25.6 µM
Results filed as inconclusive are left out. Active and inactive are the calls of the source. The call rests on the fitted dose curve; in most records, active means well fitted inhibition curve with a large enough effect; inconclusive means small, poorly fitted or top-dose-only effect; inactive means no such curve, though single readings can be large or run the other way.
ENDPOINT NAME: Potency

For orientation, consider the following solved cases.
> print(dat)
                      smiles.representation  endpoint.name   recorded.result
1  COc1ccc(C(=O)Nc2ccccc2C(=O)Nc2ccccc2C(=O)O)cc1        Potency          inactive
2           COc1ccc2nc(NC(=O)Cc3cccs3)sc2c1        Potency          inactive
3  O=C(O)c1cccc(NC(=O)c2ccc(COc3ccc(Cl)cc3)cc2)c1        Potency          inactive
4   O=C(Nc1ccc(-c2nc3ccccc3s2)cc1)C1=COCCO1        Potency  2.46 µM (active)
5  COc1ccc(CC(=O)Nc2cccc(C(=O)Nc3ccccc3C(=O)O)c2)cc1OC        Potency          inactive
6  COc1ccc(-c2cccc(C(=O)Nc3cccc(C(=O)O)c3)c2)cc1        Potency          inactive
7              Cc1ccc2nc(-c3ccc(N)cc3)sc2c1        Potency  4.91 µM (active)
8  COc1ccccc1C(=O)Nc1ccc(C(=O)Nc2ccccc2C(=O)O)cc1        Potency          inactive

Query CCOc1c(Cl)cc(C(=O)Nc2ccccc2C(=O)O)cc1Cl on Luciferin 4-monooxygenase (Photinus pyralis) (UniProt P08659); Potency returned: inactive

Query CCOc1ccc2nc(NC(=O)c3ccccc3)sc2c1 on Luciferin 4-monooxygenase (Photinus pyralis) (UniProt P08659); Potency returned: 6.19 µM (active)

Query O=C(O)c1cccc(NC(=O)c2ccccc2NC(=O)c2ccco2)c1 on Luciferin 4-monooxygenase (Photinus pyralis) (UniProt P08659); Potency returned: inactive
